ASSAY_TARGET: recombinant human mGluR4a receptors (Homo sapiens, UniProt Q14833)
Sequence (Q14833 33-912): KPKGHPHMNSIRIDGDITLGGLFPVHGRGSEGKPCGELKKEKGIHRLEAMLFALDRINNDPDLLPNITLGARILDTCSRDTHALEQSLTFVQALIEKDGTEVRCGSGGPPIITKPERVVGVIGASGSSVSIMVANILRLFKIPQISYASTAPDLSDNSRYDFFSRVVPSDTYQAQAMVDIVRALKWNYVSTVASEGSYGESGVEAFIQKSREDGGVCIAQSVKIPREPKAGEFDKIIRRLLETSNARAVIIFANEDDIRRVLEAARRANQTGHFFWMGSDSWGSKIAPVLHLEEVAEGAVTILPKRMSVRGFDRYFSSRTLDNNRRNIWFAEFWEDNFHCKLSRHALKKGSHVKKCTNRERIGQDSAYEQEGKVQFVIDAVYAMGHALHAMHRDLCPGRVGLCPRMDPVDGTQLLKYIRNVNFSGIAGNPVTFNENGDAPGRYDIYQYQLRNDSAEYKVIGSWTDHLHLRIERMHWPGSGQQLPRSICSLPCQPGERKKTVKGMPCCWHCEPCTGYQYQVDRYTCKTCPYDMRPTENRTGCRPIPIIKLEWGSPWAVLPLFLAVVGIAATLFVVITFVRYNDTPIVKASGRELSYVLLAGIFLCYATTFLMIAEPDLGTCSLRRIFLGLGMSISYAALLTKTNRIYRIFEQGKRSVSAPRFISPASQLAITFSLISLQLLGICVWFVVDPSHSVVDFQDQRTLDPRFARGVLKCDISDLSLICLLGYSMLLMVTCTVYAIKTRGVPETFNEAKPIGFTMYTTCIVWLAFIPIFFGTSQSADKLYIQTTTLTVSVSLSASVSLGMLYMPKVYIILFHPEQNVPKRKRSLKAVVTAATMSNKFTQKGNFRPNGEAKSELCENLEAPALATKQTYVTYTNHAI
EXPERIMENTAL_DETAILS: Fluorescent cell based Ca2+ mobilization assay (FLIPR) on HEK-293 cells expressing human mGluR4
MEASUREMENT_CONDITIONS: positive allosteric modulation in presence of EC25 glutamate; HEK-293 hmGluR4; mean of at least three independent experiments in duplicate; read-out: Ca^2+ Flux (mean EC50)
pEC50: −log10 of the molar value.
Catalogue of pEC50 values

A selection of reference data follows.
Cc1cc2[nH]ncc2c2nc(Nc3ccccn3)sc12 [Compound 1-1] | 5.00 to 6.00
Cc1ccnc(Nc2nc3c(s2)CC(C)(C)C(F)(F)c2[nH]ncc2-3)n1 [Compound 1-9] | 6.00 to 7.00
Cc1nc(Nc2nc3c(s2)COC(C(C)C)c2[nH]ncc2-3)ncc1F (stereo not shown) [Compound 1-29] | 6.00 to 7.00
Cc1ccnc(Nc2nc3c(s2)CCC(O)c2[nH]ncc2-3)n1 (stereo not shown) [Compound 1-3] | 6.00 to 7.00
CCC1OCc2sc(Nc3nsc(C)n3)nc2-c2c[nH]nc21 (stereo not shown) [Compound 1-20] | > 7.00
CCC1OCc2sc(Nc3nccc(C)n3)nc2-c2c[nH]nc21 (stereo not shown) [Compound 1-8] | > 7.00

Fill in: pEC50 of Cc1ccnc(Nc2nc3c(s2)COC(c2ccccn2)c2[nH]ncc2-3)n1 (stereo not shown) [Compound 1-31] is ___ > 7.00

Fill in: pEC50 of Cc1ccnc(Nc2nc3c(s2)CCCCc2[nH]ncc2-3)n1 [Compound 1-7] is ___ 6.00 to 7.00

Fill in: pEC50 of Cc1ccnc(Nc2nc3c(s2)COC(C)(C)c2n[nH]cc2-3)n1 [Compound 1-10] is ___ > 7.00

Fill in: pEC50 of Cc1ccnc(Nc2nc3c(s2)CCC(C)c2n[nH]cc2-3)n1 (stereo not shown) [Compound 1-12] is ___ > 7.00
